biological target: BCDIN3D (Homo sapiens, UniProt Q7Z5W3); assay: BCDIN3D InCellPulse thermal stability assay in transfected A549 cells; type: cell-based; details: A549 cells transiently transfected with ePL-BCDIN3D, 1 h pre-incubation, heat shock 58° C. 15 min
Sequence (Q7Z5W3 whole entry): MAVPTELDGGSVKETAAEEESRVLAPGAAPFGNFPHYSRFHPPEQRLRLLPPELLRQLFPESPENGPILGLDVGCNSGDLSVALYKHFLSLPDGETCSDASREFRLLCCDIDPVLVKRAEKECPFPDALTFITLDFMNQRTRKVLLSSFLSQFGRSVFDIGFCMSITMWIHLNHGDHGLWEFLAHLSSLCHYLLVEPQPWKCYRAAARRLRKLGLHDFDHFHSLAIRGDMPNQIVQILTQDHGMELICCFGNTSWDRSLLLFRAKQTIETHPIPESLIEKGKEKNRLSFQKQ
outcome.measure: pIC50
The meaning of pIC50 here: minus log10 of the concentration in molar units.

Study these solved cases before continuing.
compound=Cn1ncc2c(Nc3ccc(C(F)(F)F)cc3)nc(NCCN)nc21 experimental_system="BCDIN3D (Homo sapiens, UniProt Q7Z5W3)" outcome_measure=pIC50 readout_number=5.48
compound="Cn1ncc2c(Nc3ccc(C(F)(F)F)nc3)nc(NC[C@](C)(N)c3ccccc3)nc21 (single isomer, unassigned)" experimental_system="BCDIN3D (Homo sapiens, UniProt Q7Z5W3)" outcome_measure=pIC50 readout_number=5.22

Measured pIC50 for this entry `Cn1ncc2c(Nc3ccc(C(F)(F)F)cc3)nc(N[C@H]3COC[C@H]3N)nc21` on BCDIN3D (Homo sapiens, UniProt Q7Z5W3): 4.97

Record for `Cc1ccc(CNc2nc(N[C@H]3CCCC[C@H]3N)nc3c2cnn3C)cc1Cl` under target or system BCDIN3D (Homo sapiens, UniProt Q7Z5W3): pIC50 reported as 6.05

So the reported pIC50 for `Cn1ncc2c(NCc3ccc(-c4ccccc4)cc3)nc(NCCN)nc21` , on BCDIN3D (Homo sapiens, UniProt Q7Z5W3), turned out to be 5.53

BCDIN3D (Homo sapiens, UniProt Q7Z5W3) assay, compound `Cn1ncc2c(NCc3ccc(-c4ccccc4)cc3)nc(NCC(C)(C)N)nc21` , recorded pIC50 = 6.12

Entry `Cn1ncc2c(NC3CC3)nc(NC[C@H](N)c3ccccc3)nc21` under BCDIN3D (Homo sapiens, UniProt Q7Z5W3) had pIC50 of 5.53

`Cn1ncc2c(NCc3cccc(C(F)(F)F)c3)nc(NCCN)nc21` tested on BCDIN3D (Homo sapiens, UniProt Q7Z5W3) gave pIC50: 5.07

====

Below, each of the compounds is paired with its reported IC50 value.
target: UniProt:Q7Z5W3; experiment: BCDIN3D IC50 RFMS (RapidFire) assay with mini-helix; type: biochemical; settings: mini-helix substrate 0.2 μM, SAM 6 μM, 25 nM enzyme
Your answer is read as nM, so omit the unit and give the number.

Record `Cn1ncc2c(NCC3(F)CCC3)nc(NC[C@H](N)c3ccccc3)nc21` . Reported IC50: 280

Looking up `Cn1ncc2c(NC3CCOCC3)nc(NC[C@H](N)c3ccccc3)nc21` , I see its IC50 listed as 851

Recorded IC50 (compound `CNc1nc(NC[C@H](N)c2ccccc2)nc2c1cnn2C` ): 3630

Lab book: IC50 of `Cn1ncc2c(NC3(C)CCC3)nc(NC[C@H](N)c3ccccc3)nc21` noted as 137

Recorded IC50 (compound `Cn1ncc2c(NC(C)(C)C)nc(NC[C@@H](N)c3ccccc3)nc21` ): 1970

Just so you know, measured IC50 for `Cn1ncc2c(NCC(C)(C)F)nc(NC[C@H](N)c3ccccc3)nc21` came out at 553

Entry CCN(C)c1nc(NCC(N)c2ccccc2)nc2c1cnn2C (stereo not drawn) , IC50 reported as 2280

Entry [2H]C([2H])([2H])n1ncc2c(Nc3ccc(C(F)(F)F)nc3)nc(NCC(C)(N)c3ccccc3)nc21 (stereo not drawn) — recorded IC50 = 46.6

Consider `CC(C)[C@H](C)Nc1nc(NC[C@H](N)c2ccccc2)nc2c1cnn2C` . Its measured IC50 is 1410

Reported IC50 for Cc1ccc(CNc2nc(NC(C)CN)nc3c2cnn3C)cc1Cl (stereo not drawn) was 6560

Cc1ccc(CNc2nc(NCC(C)N)nc3c2cnn3C)cc1Cl (stereo not drawn) has a reported IC50 of 3320

For record Cn1ncc2c(NCC3CC3)nc(NCC(N)c3ccccc3)nc21 (stereo not drawn) the listed IC50 is 3470

Value of measured IC50 for the entry Cn1ncc2c(NC(C)(C)C)nc(NCC(N)c3ccncc3)nc21 (stereo not drawn) : 3390

The recorded IC50 for Cn1ncc2c(NC3CC(CO)(CCl)C3)nc(NCC(N)c3ccccc3)nc21 (stereo not drawn) is 583

====

This listing pairs compounds with measured log10 IC50.
biological target: BCDIN3D (Homo sapiens, UniProt Q7Z5W3); assay: BCDIN3D InCellPulse thermal stability assay in transfected A549 cells; assay type: cell-based; conditions: transiently transfected A549 cells, heat shock 58° C. 15 min
Hi team, quick reminder: these entries are log10 of IC50 (µM).

Use these answered entries as a reference point.
compound=Cn1ncc2c(NC3(C)CC3)nc(NC[C@H](N)c3ccccc3)nc21 outcome_measure="log10 IC50" readout_number=0.29
compound=[2H]C([2H])([2H])n1ncc2c(NC(C)(C)C)nc(NC[C@H](N)c3ccccc3)nc21 outcome_measure="log10 IC50" readout_number=-0.82
compound=Cn1ncc2c(NC3CCOCC3)nc(NC[C@H](N)c3ccccc3)nc21 outcome_measure="log10 IC50" readout_number=0.50
compound=Cn1ncc2c(Nc3ccc(C(F)(F)F)c(F)c3)nc(NCC3(N)CC3)nc21 outcome_measure="log10 IC50" readout_number=-0.55
compound=Cn1ncc2c(Nc3ccc(C(F)(F)F)cc3)nc(NCC3(N)CCC3)nc21 outcome_measure="log10 IC50" readout_number=-0.59

Quick note, log10 IC50 for `Cn1ncc2c(NC34CC(C#N)(C3)C4)nc(NCC3(N)CC3)nc21` landed at 1.22

Form field log10 IC50, entry `Cn1ncc2c(Nc3ccc(Cl)cc3)nc(NCC3(N)CC3)nc21` : 0.03

// Cn1ncc2c(Nc3ccc(OC(F)F)nc3)nc(NCC(C)(N)c3ccccc3)nc21 (stereo not shown) : log10 IC50 value = -0.28

log10 IC50 recorded for this compound, `Cn1ncc2c(NCc3ccc(C(F)(F)F)nc3)nc(NCC3(N)CC3)nc21` , is 1.07

====

biological target: BCDIN3D (Homo sapiens); assay: BCDIN3D IC50 RFMS (RapidFire) assay with mini-helix; type: biochemical; conditions: mini-helix 0.2 μM and SAM 6 μM as substrates, 25 nM enzyme, 1 hr at 37° C.
# maps each entry to its IC50
The figure you give is taken to be in µM; do not add the unit.

A selection of reference data follows.
compound=Cn1ncc2c(Nc3cccc(-c4ccccc4)c3)nc(NCCN)nc21 experimental_system="BCDIN3D (Homo sapiens)" readout_number=0.744
compound=Cn1ncc2c(NCCc3ccc4c(c3)OCO4)nc(NCCN)nc21 experimental_system="BCDIN3D (Homo sapiens)" readout_number=4.07
compound="CCOc1nc(NCC(N)c2ccccc2)nc2c1cnn2C (centres unmarked)" experimental_system="BCDIN3D (Homo sapiens)" readout_number=2.51
compound=Cn1ncc2c(Nc3ccc(C(F)(F)F)cc3)nc(N[C@H]3COC[C@H]3N)nc21 experimental_system="BCDIN3D (Homo sapiens)" readout_number=5.66

The reported IC50 of the compound `COc1cccc(-c2cccc(Nc3nc(NCCN)nc4c3cnn4C)c2)c1` was 0.762

====

Target: BCDIN3D (Homo sapiens, UniProt Q7Z5W3)
Assay: BCDIN3D InCellPulse thermal stability assay in transfected A549 cells
Assay type: cell-based
Conditions: transiently transfected A549 cells, heat shock 58° C. 15 min
Experimental: BCDIN3D InCellPulse™ Assay The thermal stability assay was performed with lipofectamine 3000 transiently transfected A549 using the plasmid pICP-ePL-BCDIN3 Da. This plasmid encodes for BCDIN3D N-terminally fused to a Prolabel (ePL), complementing a split β-Galactosidase Enzyme System InCELL Pulse Technology (InCELL Hunter Detection Kit, DiscoverX/Eurofins, cat: 96-0079L). […] Finally, the luminescence was measured with a Perkin Elmer EnVision with 0.2 s measurement time in luminescence mode.
outcome.measure: pIC50
// pIC50 here means minus log10 of the molar concentration (mol/L)

molecule="Cn1ncc2c(Nc3ccc(C(F)(F)F)cc3)nc(NCC(N)C3CCCCC3)nc21 (stereo not shown) [Compound 3.11]" experimental_system="BCDIN3D (Homo sapiens, UniProt Q7Z5W3)" outcome_measure=pIC50 readout_number=7.18
molecule="COCCNc1nc(NCC(N)c2ccccc2)nc2c1cnn2C (stereo not shown) [Compound 4.49]" experimental_system="BCDIN3D (Homo sapiens, UniProt Q7Z5W3)" outcome_measure=pIC50 readout_number=5.22
molecule="Cn1ncc2c(NC3(C)CCCCC3)nc(NC[C@H](N)c3ccccc3)nc21 [Compound 4.111]" experimental_system="BCDIN3D (Homo sapiens, UniProt Q7Z5W3)" outcome_measure=pIC50 readout_number=6.53
molecule="Cn1ncc2c(NC(C)(C)C)nc(NC[C@H](N)c3ccccc3)nc21 [Compound 4.53]" experimental_system="BCDIN3D (Homo sapiens, UniProt Q7Z5W3)" outcome_measure=pIC50 readout_number=6.55
molecule="Cc1ccc(CNc2nc(NCC(C)N)nc3c2cnn3C)cc1Cl (stereo not shown) [Compound 3.01]" experimental_system="BCDIN3D (Homo sapiens, UniProt Q7Z5W3)" outcome_measure=pIC50 readout_number=5.64
molecule="Cn1ncc2c(NC(C)(C)C)nc(NCC(N)c3cccc(Br)c3)nc21 (stereo not shown) [Compound 5.18]" experimental_system="BCDIN3D (Homo sapiens, UniProt Q7Z5W3)" outcome_measure=pIC50 readout_number=7.56
molecule="[2H]C([2H])([2H])n1ncc2c(Nc3ccc(C(F)(F)F)nc3)nc(NCC3(N)CC3)nc21 [Compound 2.50]" experimental_system="BCDIN3D (Homo sapiens, UniProt Q7Z5W3)" outcome_measure=pIC50 readout_number=5.53
molecule="Cn1ncc2c(Nc3ccc(C(F)(F)F)cc3)nc(NC[C@@H](N)c3ccccc3)nc21 [Compound 4.23]" experimental_system="BCDIN3D (Homo sapiens, UniProt Q7Z5W3)" outcome_measure=pIC50 readout_number=6.69

For Cc1ccc(CNc2nc(NCC3(N)CC3)nc3c2cnn3C)cc1Cl [Compound 2.01] on BCDIN3D (Homo sapiens, UniProt Q7Z5W3), measured pIC50 was 6.15

Observed pIC50, BCDIN3D (Homo sapiens, UniProt Q7Z5W3), Cn1ncc2c(NC(C)(C)C(F)(F)F)nc(NC[C@H](N)c3cccc(C#N)c3)nc21 [Compound 5.23] : 6.91

Form field pIC50 for item Cn1ncc2c(Nc3ccc(C(F)(F)F)nc3)nc(NCC3(N)CCOC3)nc21 (stereo not shown) [Compound 3.15] on BCDIN3D (Homo sapiens, UniProt Q7Z5W3): 5.18

Form field, pIC50 with BCDIN3D (Homo sapiens, UniProt Q7Z5W3), item COc1ccc(Nc2nc(NCC3(N)CC3)nc3c2cnn3C)cc1Cl [Compound 2.04] : 5.74
